Reference source: the supplement of paper PMC4380931

System: SKMEL28
Assay: apoptotic fraction of cells (caspase-3 NucView488 positive); higher = more apoptosis
Settings: 72 h; 0.00316 µM
readout: apoptotic fraction of cells

# smiles, apoptotic fraction of cells
records = [
    ("CN(C)CCOc1ccc(-c2nc(-c3ccncc3)c(-c3ccc4c(c3)CC/C4=N\\O)[nH]2)cc1", 0.0377),
    ("CCCS(=O)(=O)Nc1ccc(F)c(C(=O)c2c[nH]c3ncc(Cl)cc23)c1F", 0.0401),
]

Request the reported apoptotic fraction of cells associated with `Cc1ccc(NC(=O)c2cccc(C(C)(C)C#N)c2)cc1Nc1ccc2ncn(C)c(=O)c2c1`
0.0319

What about `CCCS(=O)(=O)Nc1ccc(F)c(C(=O)c2c[nH]c3ncc(-c4ccc(Cl)cc4)cc23)c1F` ?
0.0393

What about `Cn1cnc2c(F)c(Nc3ccc(Br)cc3Cl)c(C(=O)NOCCO)cc21` ?
0.036

====

Tested on: LOXIMVI
Experiment: apoptotic fraction of cells (caspase-3 NucView488 positive); higher = more apoptosis
Conditions: 48 h; 0.01 µM
readout: apoptotic fraction of cells
Reply with just the number.

Request the reported apoptotic fraction of cells associated with `CCCS(=O)(=O)Nc1ccc(F)c(C(=O)c2c[nH]c3ncc(-c4ccc(Cl)cc4)cc23)c1F`
0.0517

What about `CN(C)CCOc1ccc(-c2nc(-c3ccncc3)c(-c3ccc4c(c3)CC/C4=N\O)[nH]2)cc1` ?
0.0806

What about `Cc1ccc(NC(=O)c2cccc(C(C)(C)C#N)c2)cc1Nc1ccc2ncn(C)c(=O)c2c1` ?
0.0536

What about `Cn1cnc2c(F)c(Nc3ccc(Br)cc3Cl)c(C(=O)NOCCO)cc21` ?
0.0778

What about `CCCS(=O)(=O)Nc1ccc(F)c(C(=O)c2c[nH]c3ncc(Cl)cc23)c1F` ?
0.0809

====

# key: entry, value: relative viability
Tested on: WM1552C
Test: relative viability (cell count relative to DMSO-treated control) (fraction of DMSO control); higher = more viable cells / less drug effect
Details: 72 h; 0.00316 µM

Please review the following examples before continuing.
# molecule, relative viability
data = [
    ("CCCS(=O)(=O)Nc1ccc(F)c(C(=O)c2c[nH]c3ncc(Cl)cc23)c1F [PLX4720]", 1.04),
    ("Cn1cnc2c(F)c(Nc3ccc(Br)cc3Cl)c(C(=O)NOCCO)cc21 [Selumetinib]", 0.862),
    ("CCCS(=O)(=O)Nc1ccc(F)c(C(=O)c2c[nH]c3ncc(-c4ccc(Cl)cc4)cc23)c1F [Vemurafenib]", 1.06),
]

Request the reported relative viability associated with Cc1ccc(NC(=O)c2cccc(C(C)(C)C#N)c2)cc1Nc1ccc2ncn(C)c(=O)c2c1 [AZ628]
1.03

What about `CN(C)CCOc1ccc(-c2nc(-c3ccncc3)c(-c3ccc4c(c3)CC/C4=N\O)[nH]2)cc1` ?
1.03

====

Test system: MZ7MEL
Experiment: relative viability (cell count relative to DMSO-treated control) (fraction of DMSO control); higher = more viable cells / less drug effect
Conditions: 48 h; 0.00316 µM
readout: relative viability
Reply with just the number.

# compound, reading
rows = [
    ("CN(C)CCOc1ccc(-c2nc(-c3ccncc3)c(-c3ccc4c(c3)CC/C4=N\\O)[nH]2)cc1", 1.07),
    ("Cn1cnc2c(F)c(Nc3ccc(Br)cc3Cl)c(C(=O)NOCCO)cc21 [Selumetinib]", 1.01),
    ("CCCS(=O)(=O)Nc1ccc(F)c(C(=O)c2c[nH]c3ncc(Cl)cc23)c1F [PLX4720]", 1.04),
    ("CCCS(=O)(=O)Nc1ccc(F)c(C(=O)c2c[nH]c3ncc(-c4ccc(Cl)cc4)cc23)c1F [Vemurafenib]", 1.04),
]

Could you now look at the following compound, please?
Lab request: please report relative viability under test system MZ7MEL for Cc1ccc(NC(=O)c2cccc(C(C)(C)C#N)c2)cc1Nc1ccc2ncn(C)c(=O)c2c1 [AZ628]
1.03

====

System: WM115
Test: relative viability (cell count relative to DMSO-treated control) (fraction of DMSO control); higher = more viable cells / less drug effect
Settings: 72 h; 0.0316 µM
readout: relative viability
Reply with just the number.

# smiles, relative viability
measured = [
    ("Cc1ccc(NC(=O)c2cccc(C(C)(C)C#N)c2)cc1Nc1ccc2ncn(C)c(=O)c2c1", 0.801),
]

Could you now look at the following compound, please?
Request the reported relative viability associated with `CCCS(=O)(=O)Nc1ccc(F)c(C(=O)c2c[nH]c3ncc(Cl)cc23)c1F`
1.03

====

Test system: MMACSF
Test: apoptotic fraction of cells (caspase-3 NucView488 positive); higher = more apoptosis
Details: 72 h; 1 µM
Respond with Satisfied for apoptotic fraction of cells values of 0.4 and above, Not satisfied for values below.

Reported apoptotic fraction of cells at or above 0.4? `Cn1cnc2c(F)c(Nc3ccc(Br)cc3Cl)c(C(=O)NOCCO)cc21`
Satisfied

What about `Cc1ccc(NC(=O)c2cccc(C(C)(C)C#N)c2)cc1Nc1ccc2ncn(C)c(=O)c2c1` ?
Satisfied

What about `CN(C)CCOc1ccc(-c2nc(-c3ccncc3)c(-c3ccc4c(c3)CC/C4=N\O)[nH]2)cc1` ?
Not satisfied

What about `CCCS(=O)(=O)Nc1ccc(F)c(C(=O)c2c[nH]c3ncc(Cl)cc23)c1F` ?
Not satisfied

What about `CCCS(=O)(=O)Nc1ccc(F)c(C(=O)c2c[nH]c3ncc(-c4ccc(Cl)cc4)cc23)c1F` ?
Not satisfied

====

Test system: WM1552C
Assay: apoptotic fraction of cells (caspase-3 NucView488 positive); higher = more apoptosis
Conditions: 24 h; 0.316 µM
# key: entry, value: apoptotic fraction of cells

Please review the following examples before continuing.
# compound, apoptotic fraction of cells
data = [
    ("Cc1ccc(NC(=O)c2cccc(C(C)(C)C#N)c2)cc1Nc1ccc2ncn(C)c(=O)c2c1 [AZ628]", 0.0799),
    ("CCCS(=O)(=O)Nc1ccc(F)c(C(=O)c2c[nH]c3ncc(Cl)cc23)c1F [PLX4720]", 0.0728),
    ("CCCS(=O)(=O)Nc1ccc(F)c(C(=O)c2c[nH]c3ncc(-c4ccc(Cl)cc4)cc23)c1F [Vemurafenib]", 0.0682),
    ("Cn1cnc2c(F)c(Nc3ccc(Br)cc3Cl)c(C(=O)NOCCO)cc21 [Selumetinib]", 0.0876),
]

Could you now look at the following compound, please?
Request the reported apoptotic fraction of cells associated with `CN(C)CCOc1ccc(-c2nc(-c3ccncc3)c(-c3ccc4c(c3)CC/C4=N\O)[nH]2)cc1`
0.0643

====

Test system: C32
Assay: apoptotic fraction of cells (caspase-3 NucView488 positive); higher = more apoptosis
Details: 24 h; 0.1 µM
readout: apoptotic fraction of cells
Reply with just the number.

# smiles, test-target, reading
measured = [
    ("Cc1ccc(NC(=O)c2cccc(C(C)(C)C#N)c2)cc1Nc1ccc2ncn(C)c(=O)c2c1", "C32", 0.226),
    ("CCCS(=O)(=O)Nc1ccc(F)c(C(=O)c2c[nH]c3ncc(-c4ccc(Cl)cc4)cc23)c1F", "C32", 0.186),
    ("CN(C)CCOc1ccc(-c2nc(-c3ccncc3)c(-c3ccc4c(c3)CC/C4=N\\O)[nH]2)cc1", "C32", 0.194),
]

Request the reported apoptotic fraction of cells associated with `CCCS(=O)(=O)Nc1ccc(F)c(C(=O)c2c[nH]c3ncc(Cl)cc23)c1F`
0.153

What about `Cn1cnc2c(F)c(Nc3ccc(Br)cc3Cl)c(C(=O)NOCCO)cc21` ?
0.213

====

# key: entry, value: relative viability
Tested on: C32
Experiment: relative viability (cell count relative to DMSO-treated control) (fraction of DMSO control); higher = more viable cells / less drug effect
Details: 24 h; 1 µM
Reply with just the number.

Please review the following examples before continuing.
# compound, relative viability
rows = [
    ("Cc1ccc(NC(=O)c2cccc(C(C)(C)C#N)c2)cc1Nc1ccc2ncn(C)c(=O)c2c1 [AZ628]", 0.757),
    ("CN(C)CCOc1ccc(-c2nc(-c3ccncc3)c(-c3ccc4c(c3)CC/C4=N\\O)[nH]2)cc1", 0.842),
    ("CCCS(=O)(=O)Nc1ccc(F)c(C(=O)c2c[nH]c3ncc(-c4ccc(Cl)cc4)cc23)c1F [Vemurafenib]", 0.927),
    ("CCCS(=O)(=O)Nc1ccc(F)c(C(=O)c2c[nH]c3ncc(Cl)cc23)c1F [PLX4720]", 0.824),
]

Could you now look at the following compound, please?
Request the reported relative viability associated with Cn1cnc2c(F)c(Nc3ccc(Br)cc3Cl)c(C(=O)NOCCO)cc21 [Selumetinib]
0.861

====

# key: entry, value: relative viability
Tested on: WM1552C
Assay: relative viability (cell count relative to DMSO-treated control) (fraction of DMSO control); higher = more viable cells / less drug effect
Details: 48 h; 0.00316 µM
Reply with just the number.

Please review the following examples before continuing.
# compound, test-target, reading
data = [
    ("Cn1cnc2c(F)c(Nc3ccc(Br)cc3Cl)c(C(=O)NOCCO)cc21 [Selumetinib]", "WM1552C", 0.947),
    ("CN(C)CCOc1ccc(-c2nc(-c3ccncc3)c(-c3ccc4c(c3)CC/C4=N\\O)[nH]2)cc1", "WM1552C", 1.01),
]

Request the reported relative viability associated with Cc1ccc(NC(=O)c2cccc(C(C)(C)C#N)c2)cc1Nc1ccc2ncn(C)c(=O)c2c1 [AZ628]
1.01

What about CCCS(=O)(=O)Nc1ccc(F)c(C(=O)c2c[nH]c3ncc(-c4ccc(Cl)cc4)cc23)c1F [Vemurafenib] ?
0.925

What about CCCS(=O)(=O)Nc1ccc(F)c(C(=O)c2c[nH]c3ncc(Cl)cc23)c1F [PLX4720] ?
0.976
